assayed.system: human CD33 S128A (human, UniProt P20138 18-364)
Sequence (P20138 18-364 S128A limits assumed): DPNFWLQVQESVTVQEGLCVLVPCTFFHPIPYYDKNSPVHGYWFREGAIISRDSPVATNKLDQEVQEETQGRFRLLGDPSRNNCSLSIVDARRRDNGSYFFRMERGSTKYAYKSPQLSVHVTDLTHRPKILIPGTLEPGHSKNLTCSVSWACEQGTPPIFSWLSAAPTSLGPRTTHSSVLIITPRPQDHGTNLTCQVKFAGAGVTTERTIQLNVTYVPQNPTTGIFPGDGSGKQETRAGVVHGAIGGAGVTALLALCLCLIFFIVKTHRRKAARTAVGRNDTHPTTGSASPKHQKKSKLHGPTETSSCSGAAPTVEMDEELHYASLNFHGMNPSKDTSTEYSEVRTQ
experiment: flow cytometry on HEK293-T, alanine scan
reported.metric: Mean % WT Binding (% WT binding)
Answers are plain numbers, in % WT binding.

Worked cases, Mean % WT Binding given:
Refmab #1 (antibody, V domains shown, The alanine scan used IgG or Fab; also called hP67.6) VH: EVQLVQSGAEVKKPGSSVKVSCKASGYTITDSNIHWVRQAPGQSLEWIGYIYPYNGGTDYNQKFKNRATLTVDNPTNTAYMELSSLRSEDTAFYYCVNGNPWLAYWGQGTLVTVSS VL: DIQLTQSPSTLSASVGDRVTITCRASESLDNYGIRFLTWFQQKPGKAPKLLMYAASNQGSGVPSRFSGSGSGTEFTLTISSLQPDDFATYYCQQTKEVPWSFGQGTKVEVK ... 118
Refmab #2 (antibody, V domains shown, The alanine scan used IgG or Fab) VH: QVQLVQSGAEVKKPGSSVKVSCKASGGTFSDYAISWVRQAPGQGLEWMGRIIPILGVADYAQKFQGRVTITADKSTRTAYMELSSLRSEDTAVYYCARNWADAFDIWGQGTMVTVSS VL: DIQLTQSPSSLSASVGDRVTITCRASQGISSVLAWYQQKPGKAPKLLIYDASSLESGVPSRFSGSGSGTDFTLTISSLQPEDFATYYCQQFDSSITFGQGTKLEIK ... 140
Refmab #4 (antibody, V domains shown, The alanine scan used IgG or Fab) VH: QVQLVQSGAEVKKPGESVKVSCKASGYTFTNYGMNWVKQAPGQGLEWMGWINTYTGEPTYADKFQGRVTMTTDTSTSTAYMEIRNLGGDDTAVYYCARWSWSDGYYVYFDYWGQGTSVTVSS VL: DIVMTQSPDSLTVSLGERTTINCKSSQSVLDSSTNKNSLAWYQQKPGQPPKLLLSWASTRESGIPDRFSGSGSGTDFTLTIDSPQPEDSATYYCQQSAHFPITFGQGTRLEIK ... 184

Query :: Suppose we examine the binder Refmab #3 (antibody, V domains shown, The alanine scan used IgG or Fab) VH: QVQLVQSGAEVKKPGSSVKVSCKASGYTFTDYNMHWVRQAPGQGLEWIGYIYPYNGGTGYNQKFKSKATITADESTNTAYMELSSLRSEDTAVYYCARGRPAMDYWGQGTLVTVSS VL: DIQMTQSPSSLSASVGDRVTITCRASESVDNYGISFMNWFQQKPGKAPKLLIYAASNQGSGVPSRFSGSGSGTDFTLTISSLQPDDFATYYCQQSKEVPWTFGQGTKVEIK ; what Mean % WT Binding value has been reported?
Result :: 446
